# tested_on: human TLR8 (Homo sapiens, UniProt Q9NR97)
# Sequence (Q9NR97 27-1041): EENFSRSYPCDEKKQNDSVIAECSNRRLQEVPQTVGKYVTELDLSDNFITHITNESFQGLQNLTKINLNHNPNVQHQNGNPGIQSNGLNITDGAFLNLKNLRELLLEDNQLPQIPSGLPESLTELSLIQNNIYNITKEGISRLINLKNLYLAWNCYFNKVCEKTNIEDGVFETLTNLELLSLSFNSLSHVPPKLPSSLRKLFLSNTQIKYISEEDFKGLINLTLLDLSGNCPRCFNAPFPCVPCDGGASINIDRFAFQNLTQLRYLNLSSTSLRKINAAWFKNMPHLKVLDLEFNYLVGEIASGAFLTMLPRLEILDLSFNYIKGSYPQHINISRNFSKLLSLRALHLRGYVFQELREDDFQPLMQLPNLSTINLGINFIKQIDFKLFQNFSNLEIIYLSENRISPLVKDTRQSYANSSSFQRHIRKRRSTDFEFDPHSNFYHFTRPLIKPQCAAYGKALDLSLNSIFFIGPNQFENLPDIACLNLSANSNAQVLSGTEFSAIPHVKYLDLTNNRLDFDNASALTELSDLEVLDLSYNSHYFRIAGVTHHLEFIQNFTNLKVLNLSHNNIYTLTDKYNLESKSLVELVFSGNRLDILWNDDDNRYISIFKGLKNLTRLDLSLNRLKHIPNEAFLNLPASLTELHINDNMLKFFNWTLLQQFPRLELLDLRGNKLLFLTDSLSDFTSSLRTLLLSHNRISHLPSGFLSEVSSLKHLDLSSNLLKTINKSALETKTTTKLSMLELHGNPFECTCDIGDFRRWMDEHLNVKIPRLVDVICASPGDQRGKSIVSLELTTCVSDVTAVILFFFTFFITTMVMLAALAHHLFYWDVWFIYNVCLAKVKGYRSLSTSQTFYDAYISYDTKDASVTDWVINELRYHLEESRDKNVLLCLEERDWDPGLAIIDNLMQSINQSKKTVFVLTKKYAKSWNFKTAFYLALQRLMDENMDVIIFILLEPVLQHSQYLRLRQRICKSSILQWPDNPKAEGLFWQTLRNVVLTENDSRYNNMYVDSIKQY
# method_description: TLR8 inhibition reporter assay (HEK-Blue cells, SEAP reporter, R848 stimulation)
# reported_conditions: HEK-Blue cells overexpressing human TLR8, SEAP reporter, R848 15.9 μM
pIC50: −log10 of the molar value.
observable: pIC50

// known answers, use as guide
Cc1c(-c2[nH]c3ccc(C4CCNCC4)cc3c2C(C)C)cn2ccnc2c1C [Example 271] | > 7.00
Cc1cn2c(C)cc(-c3[nH]c4ccc(C5CCN(C(=O)CN(C)C)CC5)cc4c3C(C)C)cc2n1 [Example 499] | 4.30 to 6.00
Cc1cc(-c2[nH]c3ccc(C4CCN(C(CO)CO)CC4)cc3c2C(C)C)cc2nccn12 [Example 755] | 6.00 to 7.00
Cc1cc(-c2[nH]c3ccc(C4CCN(C5CCOCC5)CC4)cc3c2C(C)C)cn2ccnc12 [Example 705] | > 7.00
Cc1cc2cc(-c3[nH]c4ccc(C5CCN(C6COC6)CC5)cc4c3C(C)C)ccn2n1 [Example 726] | < 5.51

### Prompt Give pIC50 for the following molecule: Cc1cc(-c2[nH]c3ccc(C4CCNCC4)cc3c2C(C)C)cn2c(C)cnc12 [Example 121]
### Response 4.30 to 6.00

### Prompt Retrieve pIC50 measured for Cc1cc2cc(-c3[nH]c4ccc(C5CCN(CC(=O)N(C)C)CC5)cc4c3C(C)C)cc(CC(C)C)n2n1 [Example 393] and print it.
### Response < 5.51

### Prompt Provide only the value of recorded pIC50 for Cc1cc(-c2[nH]c3ccc(C4CCN(C5COC5)CC4)cc3c2C(C)C)cc2cccnc12 [Example 723]
### Response 6.00 to 7.00

### Prompt For CCc1c(-c2ccnc3[nH]ncc23)[nH]c2ccc(C3CCN(Cc4cncn4C)CC3)cc12 [Example 911] , write its pIC50.
### Response > 7.00

### Prompt Quickly give me recorded pIC50 for Cc1cc(-c2[nH]c3ccc(C4CCN(C5COC5)CC4)cc3c2C(C)C)nc2scnc12 [Example 718]
### Response > 7.00

### Prompt // fetch pIC50 given entry CCCN1CCC(c2ccc3[nH]c(-c4cc(C)c5ncn(C)c5c4)c(C(C)C)c3c2)CC1 [Example 954]
### Response > 7.00

### Prompt Complete the entry with pIC50 for CCOc1cc(-c2[nH]c3ccc(C4CCN(C(=O)CN(C)C)CC4)cc3c2C(C)C)cc2ncnn12 [Example 498]
### Response > 7.00

### Prompt Please look at this molecule and report its pIC50: Cc1nc2c(-c3[nH]c4ccc(C5CCNCC5)cc4c3C(C)C)ccc(C)n2n1 [Example 151]
### Response 6.00 to 7.00

### Prompt Identify measured pIC50 associated with CCc1c(-c2cnc3cccnn23)[nH]c2ccc(C3CCNCC3)cc12 [Example 187]
### Response 4.30 to 6.00

### Prompt Respond only with pIC50 recorded for CNC(=O)CN1CCC(c2ccc3[nH]c(-c4cc(C)n5ncnc5c4)c(C(C)C)c3c2)CC1 [Example 325]
### Response > 7.00

### Prompt Provide pIC50 value for the following molecule: Cc1cc(-c2[nH]c3ccc(C4CCN(C(=O)CN(C)C(C)(C)C)CC4)cc3c2C(C)C)cn2nnnc12 [Example 481]
### Response > 7.00
